Counter-ions that a name gives are not always drawn.
Measured melting point, listed per entry.

COMPOUND	melting point
CCN1CCN(Cc2ccc3c(ccn3S(=O)(=O)c3ccc(OC)cc3)c2)CC1.Cl.Cl	254 to 258 °C
CCN1CCN(Cc2ccc3c(ccn3S(=O)(=O)c3cccc(C(F)(F)F)c3)c2)CC1.Cl.Cl	265 to 270 °C
Cl.Cl.O=S(=O)(c1ccc(F)cc1F)n1cc(Cl)c2cc(CN3CCNCC3)ccc21	241.5 to 246.1 °C

Incoming: Reported melting point, compound CN1CCN(Cc2ccc3c(c2)c(Cl)cn3S(=O)(=O)c2cc(C(F)(F)F)ccc2Cl)CC1 (as salt: hydrochloride) [Compound 27, dihydrochloride] : ____
Outgoing: 287 to 290 °C
